- targetOrSystem: SCD5 (Homo sapiens, UniProt Q86SK9)
- Construct: host or cells: S. cerevisiae ole1Δ strain (W303 pdr1Δ pdr3Δ background), plasmid pRS316 with TDH3 promoter and CYC1 terminator
- Sequence (Q86SK9 whole entry): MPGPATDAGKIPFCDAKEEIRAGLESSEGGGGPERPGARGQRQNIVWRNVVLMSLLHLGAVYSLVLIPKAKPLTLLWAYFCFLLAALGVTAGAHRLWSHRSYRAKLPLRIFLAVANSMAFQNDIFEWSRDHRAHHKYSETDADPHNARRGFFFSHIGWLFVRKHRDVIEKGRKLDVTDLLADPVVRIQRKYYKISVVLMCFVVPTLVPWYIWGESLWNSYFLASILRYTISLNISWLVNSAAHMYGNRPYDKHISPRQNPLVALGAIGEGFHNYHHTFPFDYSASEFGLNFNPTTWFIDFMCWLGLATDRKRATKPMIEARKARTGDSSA
- experimentNotes: Growth inhibition of humanized yeast strain expressing SCD5 as sole desaturase
- Format: cell-based
- conditionInfo: humanized yeast strain expressing SCD5
Response field class: string, computed from recorded SCD5 % Max Inhibition by ranges one (below 20%), two (20% to below 80%), three (80% or more)

Use the examples below as a reference point.
Inquiry: Lab log: `CCOc1ccc(-c2noc(C3CCN(C(=O)CN4Cc5ccccc5C4=O)CC3)n2)cc1OC` — assign SCD5 % Max Inhibition category
Reply text: two

Inquiry: Lab log: CCOc1ccc(-c2noc(C3CCN(C(=O)C4CC(=O)N(c5ccccc5)C4)CC3)n2)nc1OC (stereo not drawn) — assign SCD5 % Max Inhibition category
Reply text: two

Inquiry: Lab log: `CCN(Cc1nc(-c2ccccc2)no1)C(=O)Cc1cccc2ccccc12` — assign SCD5 % Max Inhibition category
Reply text: two

Inquiry: Lab log: `Cc1nn(C)c2cc(-c3noc(N4CCN(C(=O)CN5Cc6ccccc6C5=O)CC4)n3)ccc12` — assign SCD5 % Max Inhibition category
Reply text: three

Others:
Inquiry: Lab log: `COc1ccc(-c2noc(CCNC(=O)COc3cc(O)c4c(c3)OC(C)(C)CC4=O)n2)cc1OC` — assign SCD5 % Max Inhibition category
Reply text: two

Inquiry: Lab log: Cc1nn(C)c2cc(-c3noc(C4CCN(C(=O)[C@H]5CC(=O)N(c6ccccc6)C5)CC4(F)F)n3)ccc12 (stereo partly drawn) — assign SCD5 % Max Inhibition category
Reply text: one

Inquiry: Lab log: Cc1nn(C)c2cc(-c3noc(C4CCN(C(=O)C5CC(=O)N(c6ccccc6C#N)C5)CC4)n3)ccc12 (stereo not drawn) — assign SCD5 % Max Inhibition category
Reply text: three

Inquiry: Lab log: `CC(C)n1ncc2ccc(-c3noc(C4CCN(C(=O)c5ccccc5)CC4)n3)cc21` — assign SCD5 % Max Inhibition category
Reply text: one

Inquiry: Lab log: `Cc1nn(C)c2cc(-c3noc(N4CCN(C(=O)c5cc(F)ccc5Cl)CC4)n3)ccc12` — assign SCD5 % Max Inhibition category
Reply text: one

Inquiry: Lab log: `COc1ccc(-c2noc(C3CCN(C(=O)CNC(=O)C4CCCCC4)CC3)n2)cc1OC` — assign SCD5 % Max Inhibition category
Reply text: two

Inquiry: Lab log: `CCn1nc2cc(-c3noc(C4CCN(C(=O)CNC(=O)c5ccccc5)CC4)n3)ccc2c1C` — assign SCD5 % Max Inhibition category
Reply text: two
